- STUDY TARGET: human recombinant PGHS-2 (Homo sapiens)
- Sequence (P35354 18-604): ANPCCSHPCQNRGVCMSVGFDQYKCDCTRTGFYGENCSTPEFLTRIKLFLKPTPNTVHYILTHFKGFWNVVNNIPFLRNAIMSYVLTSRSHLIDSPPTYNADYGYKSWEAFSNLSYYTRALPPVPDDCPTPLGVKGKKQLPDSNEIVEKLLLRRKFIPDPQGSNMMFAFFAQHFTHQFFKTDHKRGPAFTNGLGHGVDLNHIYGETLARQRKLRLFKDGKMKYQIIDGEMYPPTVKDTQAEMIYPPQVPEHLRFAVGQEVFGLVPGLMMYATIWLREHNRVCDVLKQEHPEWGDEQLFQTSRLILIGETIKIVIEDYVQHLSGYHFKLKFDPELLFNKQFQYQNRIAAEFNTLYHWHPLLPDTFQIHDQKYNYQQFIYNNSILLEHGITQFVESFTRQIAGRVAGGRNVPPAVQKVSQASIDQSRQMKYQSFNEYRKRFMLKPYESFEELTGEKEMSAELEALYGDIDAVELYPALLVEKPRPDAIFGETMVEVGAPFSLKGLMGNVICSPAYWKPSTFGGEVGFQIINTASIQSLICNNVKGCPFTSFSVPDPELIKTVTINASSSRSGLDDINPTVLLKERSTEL
- PROTOCOL SUMMARY: Inhibition of prostaglandin biosynthesis (PGE2 by EIA), recombinant human PGHS-2 enzyme assay
- TEST SETTINGS: 60 min preincubation, 10 μM arachidonic acid
MEASUREMENT KIND: pIC50
The read-out pIC50 is expressed as -log10 of concentration in moles per litre.

Consider "Cc1ccc(Cl)c(Nc2ccccc2C=NOCC(=O)O)c1Cl" . Its measured pIC50 is 7.66

---

- STUDY TARGET: human recombinant PGHS-1 (Homo sapiens, UniProt P23219)
- Sequence (P23219 24-599): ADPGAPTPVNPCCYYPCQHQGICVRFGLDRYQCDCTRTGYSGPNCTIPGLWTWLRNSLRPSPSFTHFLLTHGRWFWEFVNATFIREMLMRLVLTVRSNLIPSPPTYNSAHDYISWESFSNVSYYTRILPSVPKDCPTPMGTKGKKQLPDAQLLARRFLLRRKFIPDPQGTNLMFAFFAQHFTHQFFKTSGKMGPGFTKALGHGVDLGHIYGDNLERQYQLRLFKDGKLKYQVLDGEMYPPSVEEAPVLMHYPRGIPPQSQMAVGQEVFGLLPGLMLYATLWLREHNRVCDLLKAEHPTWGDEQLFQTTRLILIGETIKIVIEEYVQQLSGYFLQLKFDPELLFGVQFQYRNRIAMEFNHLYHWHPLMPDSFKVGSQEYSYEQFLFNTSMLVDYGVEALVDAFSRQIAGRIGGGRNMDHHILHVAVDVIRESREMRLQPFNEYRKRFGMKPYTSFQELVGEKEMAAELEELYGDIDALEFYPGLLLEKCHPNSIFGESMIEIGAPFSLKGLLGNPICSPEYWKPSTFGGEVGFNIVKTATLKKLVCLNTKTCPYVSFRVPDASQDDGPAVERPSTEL
- PROTOCOL SUMMARY: Inhibition of prostaglandin biosynthesis (PGE2 by EIA), recombinant human PGHS-1 enzyme assay
- TEST SETTINGS: 60 min preincubation, 10 μM arachidonic acid
MEASUREMENT KIND: IC50 (nM)
Numeric only. Scale: nM

Lab book: IC50 of "Cc1ccc(Cl)c(Nc2ccccc2C=NOCC(=O)O)c1Cl" noted as 850
